experimental_target: HLA-A*02:02
protocol_description: IEDB peptide-MHC binding, purified MHC/competitive/radioactivity; filed as Kd, often an IC50 or EC50 that approximates it; bounds were set here for any values at or beyond the usual limits of such assays
measurement_context: source organism: Vaccinia virus WR
Entries and their pKd
Reminder that pKd is minus the log10 of a molar concentration.

[in] # returns recorded pKd (system: HLA-A*02:02) for "HLTENNLYI"
[out] 6.94

[in] Lookup "EIDVSEVKTL"
[out] 5.31

[in] Lookup "MMVILPDKI"
[out] 7.16

---
[in] # returns recorded pKd (system: HLA-A*02:02) for "SLVYGIRCV"
[out] 5.53

[in] Lookup "LATLNTLIT"
[out] 5.94

[in] Lookup "STCYVFGLY"
[out] 4.87
